# experiment.description: Study 2 (MAD) plasma and urine pharmacokinetics
# Assay type: in vivo, human
# protocol.conditions: human, plasma, oral, 100 mg, IR 100 mg BID, day 14, fed (standard meal); read-out: Tmax, median (range)
assay.readout: Tmax (h)
Just the number in h, nothing appended.

Determine from records and report Tmax for CC[C@@H]1[C@H](F)C(=O)N[C@@H]1COc1nccc2cc(C(N)=O)c(OC)cc12
2.02

* * *

# experiment.description: clinical
# protocol.conditions: human, in vivo, 1000 mg, Cmax, geometric mean (%CV)
assay.readout: Cmax (ng/mL)
State just the number; it will be interpreted in ng/mL.

Using the record for CC[C@@H]1[C@H](F)C(=O)N[C@@H]1COc1nccc2cc(C(N)=O)c(OC)cc12 , state its measured Cmax.
309

* * *

# experiment.description: Study 2 (MAD) plasma and urine pharmacokinetics
# Format: in vivo, human
# protocol.conditions: human, plasma, oral; IR 250 mg BID, day 14, fed (standard meal); read-out: Vz/F, geometric mean (%CV)
assay.readout: Vd/F (L)
Answer format: numeric, L implied, no suffix.

Please give the documented Vd/F of CC[C@@H]1[C@H](F)C(=O)N[C@@H]1COc1nccc2cc(C(N)=O)c(OC)cc12
10200

* * *

# experiment.description: clinical
# protocol.conditions: human, in vivo, 10 mg, MRT, mean ± SD
assay.readout: MRT (h)
Report the value in h with no unit label.

Supply recorded MRT for CC[C@@H]1[C@H](F)C(=O)N[C@@H]1COc1nccc2cc(C(N)=O)c(OC)cc12 here.
4.31

* * *

# experiment.description: clinical
# protocol.conditions: human, in vivo, 300 mg, Vz/F, geometric mean (%CV)
assay.readout: Vd/F (L)
Please respond with the number in L and leave the unit unwritten.

Supply measured Vd/F of CC[C@@H]1[C@H](F)C(=O)N[C@@H]1COc1nccc2cc(C(N)=O)c(OC)cc12 [PF-06650833] in your reply.
6820

* * *

# experiment.description: Study 2 (MAD) plasma and urine pharmacokinetics
# Type: in vivo, human
# protocol.conditions: human, plasma, oral, 750 mg, IR 750 mg BID, day 1, fed (standard meal); read-out: Tmax, median (range)
assay.readout: Tmax (h)
Numeric answer only, unit h assumed.

Fill in reported Tmax for this entry: CC[C@@H]1[C@H](F)C(=O)N[C@@H]1COc1nccc2cc(C(N)=O)c(OC)cc12
3.12

* * *

# experiment.description: Study 2 (MAD) plasma and urine pharmacokinetics
# Assay type: in vivo, human
# protocol.conditions: human, plasma, oral, 250 mg, IR 250 mg BID, day 14, fed (standard meal); read-out: Tmax, median (range)
assay.readout: Tmax (h)
Just the number please, in h, no unit attached.

Quickly give me recorded Tmax for CC[C@@H]1[C@H](F)C(=O)N[C@@H]1COc1nccc2cc(C(N)=O)c(OC)cc12 [PF-06650833]
2.02

* * *

# experiment.description: Study 2 (MAD) plasma and urine pharmacokinetics
# Type: in vivo, human
# protocol.conditions: human, plasma, oral; range across all dosages, day 14; read-out: Mean volume of distribution
assay.readout: Vd at 14 day

Return reported Vd at 14 day. Input compound: CC[C@@H]1[C@H](F)C(=O)N[C@@H]1COc1nccc2cc(C(N)=O)c(OC)cc12 [PF-06650833]
8060 to 13200 L

* * *

# experiment.description: clinical
# protocol.conditions: human, in vivo, 100 mg, t½, mean ± SD
assay.readout: half-life (h)
Please respond with the number in h and leave the unit unwritten.

Return the recorded half-life value; entry: CC[C@@H]1[C@H](F)C(=O)N[C@@H]1COc1nccc2cc(C(N)=O)c(OC)cc12 [PF-06650833]
9.35

* * *

# experiment.description: clinical
# protocol.conditions: human, in vivo, 30 mg, AUCinf, geometric mean (%CV)
assay.readout: AUC(0-inf) (ng·h/mL)
Supply the numeric figure in ng·h/mL, leaving out any unit text.

Output measured AUC(0-inf) for this item: CC[C@@H]1[C@H](F)C(=O)N[C@@H]1COc1nccc2cc(C(N)=O)c(OC)cc12 [PF-06650833]
263

* * *

# experiment.description: Study 2 (MAD) plasma and urine pharmacokinetics
# Assay type: in vivo, human
# protocol.conditions: human, plasma, oral, 100 mg, IR 100 mg BID, day 1, fed (standard meal); read-out: AUCtau, geometric mean (%CV)
assay.readout: AUC (ng·h/mL)
The response must be a number in ng·h/mL with no trailing unit.

Please indicate AUC recorded for CC[C@@H]1[C@H](F)C(=O)N[C@@H]1COc1nccc2cc(C(N)=O)c(OC)cc12
566

* * *

# experiment.description: clinical
# protocol.conditions: human, in vivo, 1 mg, Tmax, median (range)
# Description: Study 1 (B7921001; NCT02224651) was a 96-day, phase 1, within-cohort, randomized, double-blind, sponsor-open, placebo-substitution, five-period crossover, SAD study in healthy adult subjects (Fig. 1a). […] For both studies, samples of blood (and urine in study 2) were taken for evaluation of PK/PD parameters (see Additional file 1: Supplemental Methods). […] The lower limit of quantification for PF-06650833 in plasma was 0.0500 ng/mL. […]
assay.readout: Tmax

Supply recorded Tmax for CC[C@@H]1[C@H](F)C(=O)N[C@@H]1COc1nccc2cc(C(N)=O)c(OC)cc12 here.
1 h

* * *

# experiment.description: clinical
# protocol.conditions: human, in vivo, 1000 mg, Vz/F, geometric mean (%CV)
assay.readout: Vd/F
Mention the unit after the number when you answer.

Give the value of Vd/F reported for the following: CC[C@@H]1[C@H](F)C(=O)N[C@@H]1COc1nccc2cc(C(N)=O)c(OC)cc12 [PF-06650833]
14600 L

* * *

# experiment.description: Study 2 (MAD) plasma and urine pharmacokinetics
# Format: in vivo, human
# protocol.conditions: human, plasma, oral, 750 mg, IR 750 mg BID, day 14, fed (standard meal); read-out: AUCtau, geometric mean (%CV)
assay.readout: AUC (ng·h/mL)
Please respond with the number in ng·h/mL and leave the unit unwritten.

Determine from records and report AUC for CC[C@@H]1[C@H](F)C(=O)N[C@@H]1COc1nccc2cc(C(N)=O)c(OC)cc12
2480

* * *

# experiment.description: Study 2 (MAD) plasma and urine pharmacokinetics
# Assay type: in vivo, human
# protocol.conditions: human, urine, oral, 100 mg, IR 100 mg BID, day 14, fed (standard meal); read-out: CLr (renal clearance), geometric mean (%CV)
# Protocol: Subjects were enrolled sequentially into seven cohorts. Within each cohort, eight subjects and two subjects were randomized to receive PF-06650833 and placebo, respectively. Doses for all cohorts were administered after a standard (not high-fat) meal. […] PF-06650833 IR 330 mg TID (cohort 6) and an MR tablet at a dose of 300 mg QD (cohort 7) were also evaluated (see Fig. 1b for final dosing scheme). […] PK parameters were calculated using non-compartmental analysis of concentration-time data. […]
assay.readout: CL renal at 14 day (mL/min)
Give the quantity in mL/min, number only.

Note CL renal at 14 day for the molecule shown: CC[C@@H]1[C@H](F)C(=O)N[C@@H]1COc1nccc2cc(C(N)=O)c(OC)cc12
18.5

* * *

# experiment.description: clinical
# protocol.conditions: human, in vivo, 100 mg, AUClast, geometric mean (%CV)
assay.readout: AUC(0-t) (ng·h/mL)
Field format: number, assumed ng·h/mL, no unit text.

// Input: CC[C@@H]1[C@H](F)C(=O)N[C@@H]1COc1nccc2cc(C(N)=O)c(OC)cc12 [PF-06650833] . Output its AUC(0-t) only.
762

* * *

# experiment.description: Study 2 (MAD) plasma and urine pharmacokinetics
# Type: in vivo, human
# protocol.conditions: human, plasma, oral, day 14, IR formulations, standard meal; read-out: Median Tmax
assay.readout: Tmax at 14 day (h)
Value expressed in h; do not type the unit.

# return recorded Tmax at 14 day for input CC[C@@H]1[C@H](F)C(=O)N[C@@H]1COc1nccc2cc(C(N)=O)c(OC)cc12
2

* * *

# experiment.description: Study 2 (MAD) plasma and urine pharmacokinetics
# Assay type: in vivo, human
# protocol.conditions: human, plasma, oral, 1000 mg, IR 1000 mg QID, day 1, fed (standard meal); read-out: Tmax, median (range)
assay.readout: Tmax (h)
Lab book: enter the figure in h, no units written.

Given CC[C@@H]1[C@H](F)C(=O)N[C@@H]1COc1nccc2cc(C(N)=O)c(OC)cc12 , respond with its Tmax.
4

* * *

# experiment.description: clinical
# protocol.conditions: human, in vivo, Mean terminal half-life t½
assay.readout: half-life

In one line, give reported half-life of the entry CC[C@@H]1[C@H](F)C(=O)N[C@@H]1COc1nccc2cc(C(N)=O)c(OC)cc12 [PF-06650833] .
10.2 to 15 h

* * *

# experiment.description: clinical
# protocol.conditions: human, in vivo, 10 mg, AUCinf, geometric mean (%CV)
assay.readout: AUC(0-inf)
Please state the number and follow it with the unit.

Give AUC(0-inf) for the following molecule: CC[C@@H]1[C@H](F)C(=O)N[C@@H]1COc1nccc2cc(C(N)=O)c(OC)cc12 [PF-06650833]
82.7 ng·h/mL
